target-system: C-Raf kinase (SEQ. ID NO: 3) (Homo sapiens (Human), UniProt P04049, Y340D/Y341D)
Sequence (P04049 307-648 Y340D/Y341D): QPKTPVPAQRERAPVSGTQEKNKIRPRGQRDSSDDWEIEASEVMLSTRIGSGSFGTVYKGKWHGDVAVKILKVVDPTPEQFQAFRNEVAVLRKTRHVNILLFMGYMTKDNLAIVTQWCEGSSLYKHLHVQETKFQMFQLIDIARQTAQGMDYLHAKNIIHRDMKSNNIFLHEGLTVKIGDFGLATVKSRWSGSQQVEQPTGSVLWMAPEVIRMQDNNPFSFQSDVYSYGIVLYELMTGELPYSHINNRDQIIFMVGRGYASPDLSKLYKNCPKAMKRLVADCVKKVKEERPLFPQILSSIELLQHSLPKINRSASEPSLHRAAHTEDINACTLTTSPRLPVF
assay-method-text: Biochemical Assay for C-Raf (1)
experimental-context: Table J, assay version (1); read-out: CRAF (1) IC50
pIC50: −log10 of the molar value.
observation-type: pIC50

Reading of pIC50 for Cc1ncc(NC(=O)C2CCOCC2)cc1-c1nccc(-c2ccnc(NC(=O)C3CC3)c2)n1 [Example 339] with C-Raf kinase (SEQ. ID NO: 3) (Homo sapiens (Human), UniProt P04049, Y340D/Y341D): 5.00 to 6.00

Reading of pIC50 for Cc1ccc(NC(=O)c2cccc(C(C)(C)C#N)c2)cc1-c1cccc(-c2cc(NC(=O)C3CC3)ncn2)c1 [Example 174] with C-Raf kinase (SEQ. ID NO: 3) (Homo sapiens (Human), UniProt P04049, Y340D/Y341D): ≥ 7.00

Reading of pIC50 for CC(=O)Nc1cc(-c2cc(-c3cc(NC(=O)c4ccnc(C(C)(C)C#N)c4)ccc3C)nc(C)n2)ccn1 [Example 89] with C-Raf kinase (SEQ. ID NO: 3) (Homo sapiens (Human), UniProt P04049, Y340D/Y341D): ≥ 7.00

Reading of pIC50 for COC(=O)Nc1cc(-c2cnnc(-c3cc(NC(=O)CN4CCCC4)cnc3C)c2)ccn1 [Example 359] with C-Raf kinase (SEQ. ID NO: 3) (Homo sapiens (Human), UniProt P04049, Y340D/Y341D): 5.00 to 6.00
